molecular target: T1, Taq DNA polymerase (Thermus aquaticus, UniProt P19821 1-832); experiment: AMC sensor, antibody immobilised
T1 construct: also called Taq enzyme; Taq DNA enzyme
T1 sequence (P19821 whole entry): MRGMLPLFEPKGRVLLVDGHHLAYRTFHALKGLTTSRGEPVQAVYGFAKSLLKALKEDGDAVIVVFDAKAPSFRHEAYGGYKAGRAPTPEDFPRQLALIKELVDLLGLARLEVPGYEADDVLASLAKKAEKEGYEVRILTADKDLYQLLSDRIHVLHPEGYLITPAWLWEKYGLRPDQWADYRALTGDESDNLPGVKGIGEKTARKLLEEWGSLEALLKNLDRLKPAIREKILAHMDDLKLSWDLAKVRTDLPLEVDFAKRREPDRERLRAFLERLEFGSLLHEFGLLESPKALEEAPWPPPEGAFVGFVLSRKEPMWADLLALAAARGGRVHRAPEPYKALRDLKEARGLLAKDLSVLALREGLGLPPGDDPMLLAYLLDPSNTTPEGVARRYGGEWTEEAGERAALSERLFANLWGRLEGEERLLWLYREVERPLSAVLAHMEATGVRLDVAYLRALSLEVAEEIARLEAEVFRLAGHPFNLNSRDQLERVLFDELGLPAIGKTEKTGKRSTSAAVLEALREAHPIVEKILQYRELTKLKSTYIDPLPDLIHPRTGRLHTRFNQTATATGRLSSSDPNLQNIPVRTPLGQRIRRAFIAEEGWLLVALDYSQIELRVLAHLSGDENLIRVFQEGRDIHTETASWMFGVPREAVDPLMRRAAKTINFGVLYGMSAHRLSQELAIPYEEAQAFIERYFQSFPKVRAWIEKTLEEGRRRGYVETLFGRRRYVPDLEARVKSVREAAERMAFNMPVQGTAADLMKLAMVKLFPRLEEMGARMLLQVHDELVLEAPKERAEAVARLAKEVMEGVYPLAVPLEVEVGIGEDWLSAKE
test.readout: kon
Could you write the number and then its unit?

// known answers, use as guide
Mutation 1-14 (antibody, V domains shown, Mutation 1 background; CDRs built) VH: QVQLQQPGAELVKPGASVRLSCQTSVETFSTYYIYWVKQRPGEGLEWIGGLNPTSNPVFNEKFKSKATLTVDTSSSTAYMQLSSLTSVDSAVYYCTRSVIRRGYYFDYWGQGTALTVSS VL: DIQMTQTTSSLSASLGDRVTISCRASQDIQNYLNWYQQKPDGTIKLLIYYTSRLHSGLPSRFSGSGSGTDYSLTIANLEQEDIATYFCQQDDTVPLTFGAGTKVELKR ... 84100 M⁻¹ s⁻¹
Mutation 1-29 (antibody, V domains shown, Mutation 1 background; CDRs built) VH: QVQLQQPGAELVKPGASVRLSCQTSVETFTTYYIYWVKQRPGEGLEWIGGLNPTSNPVFNEKFKSKATLTVDTSSSTAYMQLSSLTSVDSAVYYCTRSIIRRGYYFDYWGQGTALTVSS VL: DIQMTQTTSSLSASLGDRVTISCRASQDINNYINWYQQKPDGTIKLLIYYTSRLNSGIPSRFSGSGSGTDYSLTIANLEQEDIATYFCQQDDTIPVTFGAGTKVELKR ... 36100 M⁻¹ s⁻¹

Next binder, please.
What does the record list as kon for Mutation 1-31 (antibody, V domains shown, Mutation 1 background; CDRs built) VH: QVQLQQPGAELVKPGASVRLSCQTSVNTFTTYYIYWVKQRPGEGLEWIGGLNPTSGGPVFNEKFKSKATLTVDTSSSTAYMQLSSLTSVDSAVYYCTRSVVRRGYYFDYWGQGTALTVSS VL: DIQMTQTTSSLSASLGDRVTISCRASQDINNYVNWYQQKPDGTIKLLIYYTSRLHSGVPSRFSGSGSGTDYSLTIANLEQEDIATYFCQQDDTVPITFGAGTKVELKR ? 63300 M⁻¹ s⁻¹
